Target: UniProtKB Q9UNA0
Sequence (Q9UNA0 262-930): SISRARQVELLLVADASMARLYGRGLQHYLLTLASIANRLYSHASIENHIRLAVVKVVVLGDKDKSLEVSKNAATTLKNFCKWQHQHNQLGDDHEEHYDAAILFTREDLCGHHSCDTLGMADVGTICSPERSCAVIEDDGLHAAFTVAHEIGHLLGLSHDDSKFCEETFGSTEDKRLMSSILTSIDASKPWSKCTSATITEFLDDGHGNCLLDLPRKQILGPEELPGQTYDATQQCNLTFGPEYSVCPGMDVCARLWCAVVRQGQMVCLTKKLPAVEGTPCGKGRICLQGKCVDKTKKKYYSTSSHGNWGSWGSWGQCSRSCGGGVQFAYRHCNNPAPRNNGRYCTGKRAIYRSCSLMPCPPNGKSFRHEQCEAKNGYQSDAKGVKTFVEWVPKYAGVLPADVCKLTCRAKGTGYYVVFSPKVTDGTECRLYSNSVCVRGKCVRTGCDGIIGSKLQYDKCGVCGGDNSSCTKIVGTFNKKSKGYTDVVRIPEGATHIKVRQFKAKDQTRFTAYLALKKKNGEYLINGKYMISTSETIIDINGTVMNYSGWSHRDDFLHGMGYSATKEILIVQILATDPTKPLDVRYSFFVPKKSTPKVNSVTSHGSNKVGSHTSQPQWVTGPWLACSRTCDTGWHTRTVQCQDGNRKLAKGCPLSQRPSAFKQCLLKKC
Conditions: read-out: hADAMTS-5 potency IC50
# maps each entry to its pIC50
Lab note: report pIC50 as minus log10 of the concentration in molar units, number only.

Completed entries (count: 4):
COMPOUND	pIC50
C[C@H]1CN(C(=O)CCC2(C3CC3)NC(=O)NC2=O)CCN1c1ccn(C)n1 (stereo partly shown)	5.51
CC(CC1(C2CC2)NC(=O)NC1=O)C(=O)N1CCN(c2ccc(Cl)cc2)[C@@H](C)C1 (stereo partly shown) [compound 412]	7.89
C[C@H]1CN(C(=O)CCC2(C3CC3)NC(=O)NC2=O)CCN1c1ccc(F)cc1 (stereo partly shown)	6.85
C[C@H]1CN(C(=O)CC[C@@]2(C)NC(=O)NC2=O)CCN1c1ccc(Cl)c(C(F)(F)F)c1	6.05

Query string: Retrieve pIC50 on UniProtKB Q9UNA0; query C[C@H]1CN(C(=O)CCC2(c3ncccn3)NC(=O)NC2=O)CCN1c1cc(F)cc(Cl)c1 (stereo partly shown)
Result string: 7.34

Query string: Retrieve pIC50 on UniProtKB Q9UNA0; query CC(CC1(C2CC2)NC(=O)NC1=O)C(=O)N1CCN(c2cc(Cl)cc(Cl)c2)CC1 (stereo not shown) [compound 409]
Result string: 7.77

Query string: Retrieve pIC50 on UniProtKB Q9UNA0; query COCC1(CC(C)C(=O)N2CCN(c3cccc(Cl)c3C)CC2)NC(=O)NC1=O (stereo not shown)
Result string: 7.68

Query string: Retrieve pIC50 on UniProtKB Q9UNA0; query C[C@H]1CN(C(=O)CCC2(c3ccccn3)NC(=O)NC2=O)CCN1c1ccc(Cl)c(Cl)c1 (stereo partly shown) [compound 347]
Result string: 7.68

Query string: Retrieve pIC50 on UniProtKB Q9UNA0; query CC(CC1(c2ccccn2)NC(=O)NC1=O)C(=O)N1CCN(c2cccc(Cl)c2)[C@@H](C)C1 (stereo partly shown) [compound 269]
Result string: 7.72

----------
Target: UniProt:Q9UNA0
Conditions: read-out: hADAMTS-5 potency IC50
# maps each entry to its IC50
Note: unit nM is implicit; provide only the numeric part.

COMPOUND	OUTPUT UNIT	IC50
CC(CC1(C)NC(=O)NC1=O)C(=O)N1CCN(c2ccccc2)[C@@H](C)C1 (stereo partly shown)	nM	59

Query string: Provide one value: measured IC50 of C[C@H]1CN(C(=O)CCC2(c3cn(C)cn3)NC(=O)NC2=O)CCN1c1cc(Cl)cc(Cl)c1 (stereo partly shown)
Result string: 55

Query string: Provide one value: measured IC50 of CC(CC1NC(=O)NC1=O)C(=O)N1CCN(c2cc(Cl)cc(Cl)c2)CC1 (stereo not shown) [compound 200]
Result string: 109

Query string: Provide one value: measured IC50 of CC(CC1NC(=O)NC1=O)C(=O)N1CCN(c2cc(Cl)cc(Cl)c2)CC1 (stereo not shown) [compound 219]
Result string: 41

Query string: Provide one value: measured IC50 of Cc1ccc(F)cc1N1CCN(C(=O)C(C)CC2(C)NC(=O)NC2=O)C[C@@H]1C (stereo partly shown)
Result string: 305

----------
Biological target: human TACE (Homo sapiens (Human), UniProt P78536)
Sequence (P78536 whole entry, looked up, change not shown): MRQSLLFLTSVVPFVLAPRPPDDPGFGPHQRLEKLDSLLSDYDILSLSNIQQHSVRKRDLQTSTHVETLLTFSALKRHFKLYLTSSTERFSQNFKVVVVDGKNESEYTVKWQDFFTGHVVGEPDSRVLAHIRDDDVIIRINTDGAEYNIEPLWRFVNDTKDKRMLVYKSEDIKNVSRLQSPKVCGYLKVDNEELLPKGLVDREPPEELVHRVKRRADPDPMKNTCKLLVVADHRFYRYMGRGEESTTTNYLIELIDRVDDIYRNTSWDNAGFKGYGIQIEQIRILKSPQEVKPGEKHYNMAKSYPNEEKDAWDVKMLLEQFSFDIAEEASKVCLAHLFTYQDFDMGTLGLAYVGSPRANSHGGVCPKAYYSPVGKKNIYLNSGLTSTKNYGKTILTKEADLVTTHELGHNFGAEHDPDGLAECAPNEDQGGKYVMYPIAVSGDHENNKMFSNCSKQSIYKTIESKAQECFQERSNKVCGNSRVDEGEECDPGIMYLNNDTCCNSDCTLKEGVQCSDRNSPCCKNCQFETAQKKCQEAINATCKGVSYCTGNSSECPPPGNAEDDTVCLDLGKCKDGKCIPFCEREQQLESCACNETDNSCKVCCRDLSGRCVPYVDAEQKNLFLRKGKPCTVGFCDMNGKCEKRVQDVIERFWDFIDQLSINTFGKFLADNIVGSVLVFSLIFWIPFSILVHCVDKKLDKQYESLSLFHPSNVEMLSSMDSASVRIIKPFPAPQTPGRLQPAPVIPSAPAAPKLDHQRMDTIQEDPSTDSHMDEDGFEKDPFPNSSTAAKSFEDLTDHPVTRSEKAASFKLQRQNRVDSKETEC
Settings: read-out: TACE potency IC50
REPORTED METRIC: pIC50
Lab note: report pIC50 as minus log10 of the concentration in molar units, number only.

COMPOUND	MEASURED TARGET	NUMERIC VALUE
C[C@H]1CN(C(=O)CC[C@@]2(C3CC3)NC(=O)NC2=O)CCN1c1cc(Cl)cc(Cl)c1	human TACE (Homo sapiens (Human), UniProt P78536)	5.41

With those in mind, consider the next compound.
Query string: Retrieve pIC50 on human TACE (Homo sapiens (Human), UniProt P78536); query CC1(CC(CO)C(=O)N2CCN(c3cc(Cl)cc(Cl)c3)CC2)NC(=O)NC1=O (centres unmarked) [compound 220]
Result string: 6.61
